experimental-system: Eukaryotic translation initiation factor 4E (Oryctolagus cuniculus) (UniProt P29338)
Sequence (P29338 whole entry): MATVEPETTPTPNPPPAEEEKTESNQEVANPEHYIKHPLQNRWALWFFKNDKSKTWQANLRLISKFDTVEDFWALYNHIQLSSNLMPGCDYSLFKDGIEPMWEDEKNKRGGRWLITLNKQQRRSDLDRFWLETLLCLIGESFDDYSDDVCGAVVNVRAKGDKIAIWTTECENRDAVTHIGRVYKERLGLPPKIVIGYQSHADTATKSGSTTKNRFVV
experimental-protocol: Inhibition of eIF4E-mediated translation in flexi rabbit reticulocyte lysate using luciferase mRNA by luminescence based luciferase assay relative to m7GpppG
endpoint: Ratio

B[P@](=O)(OC[C@H]1O[C@@H](n2c[n+](C)c3c(O)nc(N)nc32)[C@H](O)[C@@H]1O)OP(=O)([O-])CP(=O)([O-])O[P@](B)(=O)OC[C@H]1O[C@@H](n2c[n+](C)c3c(O)nc(N)nc32)[C@H](O)[C@@H]1O = 1.18
B[P@@](=O)(OC[C@H]1O[C@@H](n2c[n+](C)c3c(O)nc(N)nc32)[C@H](O)[C@@H]1O)OP(=O)([O-])CP(=O)([O-])O[P@](B)(=O)OC[C@H]1O[C@@H](n2c[n+](C)c3c(O)nc(N)nc32)[C@H](O)[C@@H]1O = 0.99
CO[C@H]1[C@@H](O)[C@H](n2c[n+](C)c3c(O)nc(N)nc32)O[C@@H]1COP(=O)(O)OP(=O)([O-])OP(=O)(O)OC[C@H]1O[C@@H](n2cnc3c(=O)[nH]c(N)nc32)[C@H](O)[C@@H]1O = 1.5

[P] C[n+]1cn([C@@H]2O[C@H](CO[P@@](=O)(S)OP(=O)([O-])CP(=O)([O-])O[P@](=O)(S)OC[C@H]3O[C@@H](n4c[n+](C)c5c(O)nc(N)nc54)[C@H](O)[C@@H]3O)[C@@H](O)[C@H]2O)c2nc(N)nc(O)c21
[Q] C[n+]1cn([C@@H]2O[C@H](COP(=O)(O)OP(=O)(O)OP(=O)(O)OC[C@H]3O[C@@H](n4c[n+](C)c5c([O-])nc(N)nc54)[C@H](O)[C@@H]3O)[C@@H](O)[C@H]2O)c2nc(N)nc([O-])c21
Query: Compare reported Ratio values for P and Q . Which is lower? Selection: enter the item's label.
Reply: P
(P: 1.12, Q: 2.66)
